Experiment: photoluminescence quantum yield (fraction); solvent given as SMILES
Details: in O

Compound: COc1cc(/C=C/C(=O)O)ccc1O
photoluminescence quantum yield: 0.002

Compound: CC[N+](CC)=c1ccc2nc3c(cc(NCCC(=O)NC(C)C(=O)OC)c4ccccc43)oc-2c1 (configuration not stated)
photoluminescence quantum yield: 0.13

Compound: Cn1ccc(-n2cncn2)nc1=O
photoluminescence quantum yield: 0.114

Compound: Nc1ccc2c(-c3ccccc3C(=O)[O-])c3ccc(=[NH2+])cc-3oc2c1
photoluminescence quantum yield: 0.85

Compound: CC/[NH+]=c1\cc2oc3cc(NCCNC(=O)C(NC(=O)OC(C)(C)C)C(C)C)c4ccccc4c3nc-2cc1C (configuration not stated)
photoluminescence quantum yield: 0.48

Compound: NS(=O)(=O)c1ccc(N2N=C(c3ccc(O)cc3)CC2c2ccc(Cl)cc2)cc1 (configuration not stated)
photoluminescence quantum yield: 0.56

Compound: Cn1c(/C=C/c2ccc(/C=C/c3nc4ccccc4[nH]3)cc2)[n+](C)c2ccccc21
photoluminescence quantum yield: 0.044

Compound: O=C(O)COc1ccc2[nH]c3c(c2c1)CCCC3=O
photoluminescence quantum yield: 0.011

Compound: CSc1ccc2c(c1)N(CCCN(C)C)c1ccccc1S2
photoluminescence quantum yield: 0.003

Compound: N#Cc1c(N2CCCC2)cc(-c2ccccc2)c2c1-c1cccc3cccc-2c13
photoluminescence quantum yield: 0.25

Compound: COC(=O)c1nc2cnc(N)nc2n1Cc1ccccc1
photoluminescence quantum yield: 0.95

Compound: Cc1c(OCC(=O)O)cc2c3c([nH]c2c1C)C(=O)CCC3
photoluminescence quantum yield: 0.013

Compound: [NH3+]C(Cc1ccc(O)cc1)C(=O)[O-] (configuration not stated)
photoluminescence quantum yield: 0.13

Compound: CC[n+]1nc2cc3c(cc2c2cc(C)ccc21)N(C)CCC3
photoluminescence quantum yield: 0.54

Compound: c1ccc(-c2cc(-c3ccc(-c4nc(-c5ccccn5)c(-c5ccccn5)[nH]4)cc3)cc(-c3ccccn3)n2)nc1
photoluminescence quantum yield: 0.045

Compound: Cc1ccccc1C1=C2C=CC(=[N+](C)C)C=[C]2[Ge]([CH3])([CH3])[c]2cc(N(C)C)ccc21
photoluminescence quantum yield: 0.34

Compound: CCN(CC)c1ccc2cc3ccc(=[N+](CC)CC)cc-3oc2c1
photoluminescence quantum yield: 0.94

Compound: CN(C)c1ccc(/C=C/c2nc3ccccc3s2)cc1
photoluminescence quantum yield: 0.0012

Compound: CC[N+]1(CC)CN2C(=N1)C(C(=O)O)=Cc1cc(Cl)ccc12
photoluminescence quantum yield: 0.352

Compound: CN(C)c1ccc(/C=C/c2ccccn2)cc1
photoluminescence quantum yield: 0.015

Compound: COc1cc(-c2cc(N3CCCCC3)c(C#N)c3c2-c2cccc4cccc-3c24)cc(OC)c1OC
photoluminescence quantum yield: 0.28

Compound: Cc1ccc(C2CC(c3ccc(O)cc3)=NN2c2ccc(S(N)(=O)=O)cc2)cc1 (configuration not stated)
photoluminescence quantum yield: 0.55
